Biological target: human CB1 receptors (Homo sapiens, UniProt P21554)
Construct: (cDNA clone) CNR01L000
Sequence (P21554 whole entry): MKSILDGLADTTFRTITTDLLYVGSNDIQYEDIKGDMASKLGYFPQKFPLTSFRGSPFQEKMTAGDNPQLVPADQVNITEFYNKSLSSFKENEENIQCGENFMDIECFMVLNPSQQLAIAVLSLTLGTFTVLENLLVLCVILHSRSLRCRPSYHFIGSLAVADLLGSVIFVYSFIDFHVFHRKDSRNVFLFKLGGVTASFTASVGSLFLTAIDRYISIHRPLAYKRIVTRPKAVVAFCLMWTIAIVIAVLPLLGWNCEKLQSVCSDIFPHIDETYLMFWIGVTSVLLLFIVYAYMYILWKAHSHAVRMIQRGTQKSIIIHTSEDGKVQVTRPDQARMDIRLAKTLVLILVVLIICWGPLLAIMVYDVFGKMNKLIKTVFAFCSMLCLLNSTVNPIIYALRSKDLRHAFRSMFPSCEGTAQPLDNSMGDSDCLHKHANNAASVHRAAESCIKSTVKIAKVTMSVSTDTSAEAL
Test: cAMP assay in HEK-293 cells, hCB1 agonist
Type: cell-based
Settings: inhibition of forskolin-stimulated cAMP, HEK-293 cells; read-out: hCB1 EC50 (cAMP ag)
Kindly supply the reported EC50 values for the records listed here.

Worked cases, answers included:
| molecule | experimental.system | measured.result |
| --- | --- | --- |
| Cc1cc2cc(C(=O)c3cccc(Cl)c3Cl)sc2n1S(=O)(=O)CC1CCOCC1 [Compound 46] | human CB1 receptors (Homo sapiens, UniProt P21554) | < 100 nM |
| COc1cc(F)c(C(=O)c2cc3cc(C)n(CCN4CCOCC4)c3s2)c(F)c1 [Compound 127] | human CB1 receptors (Homo sapiens, UniProt P21554) | 1000 to 10000 nM |
| COc1ccc(C(=O)c2cc3cc(C)n(S(=O)(=O)CCN4CCOCC4)c3s2)cc1 [Compound 139] | human CB1 receptors (Homo sapiens, UniProt P21554) | 100 to 1000 nM |
| Cc1cc2cc(C(=O)c3ccccc3N)sc2n1CCN1CCOCC1 [Compound 48] | human CB1 receptors (Homo sapiens, UniProt P21554) | 1000 to 10000 nM |
| COc1ccc(C(=O)c2cc3cc(C)n(CCN4CCCC4)c3s2)c(F)c1 [Compound 92] | human CB1 receptors (Homo sapiens, UniProt P21554) | 1000 to 10000 nM |
| Cc1ccc(C(=O)c2cc3cc(C)n(CCN4CCOCC4)c3s2)c(Cl)c1 [Compound 86] | human CB1 receptors (Homo sapiens, UniProt P21554) | 1000 to 10000 nM |

Report EC50 for every entry below.
1. Cc1ccc(C(=O)c2cc3cc(C)n(CCN4CCOCC4)c3s2)cc1 [Compound 124]
2. COc1ccc(C(=O)c2cc3cc(C)n(CCN4CCCCC4)c3s2)c(Cl)c1 [Compound 90]
3. Cc1cc2cc(C(=O)c3cccc(Cl)c3Cl)sc2n1S(=O)(=O)N(C)C [Compound 41]
4. Cc1cc2cc(C(=O)c3cccc(Cl)c3Cl)sc2n1CCN1CCOCC1 [Compound 1]
5. COc1ccc(C(=O)c2cc3cc(C)n(CC4CCC(F)(F)CC4)c3s2)cn1 [Compound 170]

Given back:
["1000 to 10000 nM", "100 to 1000 nM", "1000 to 10000 nM", "> 10000 nM", "< 100 nM"]

----------
I'd be grateful if you could share measured EC50 for these entries.
Target: human CB2 (hCB2) (Homo sapiens, UniProt P34972)
Construct: (cDNA clone) CNR0200000
Sequence (P34972 whole entry): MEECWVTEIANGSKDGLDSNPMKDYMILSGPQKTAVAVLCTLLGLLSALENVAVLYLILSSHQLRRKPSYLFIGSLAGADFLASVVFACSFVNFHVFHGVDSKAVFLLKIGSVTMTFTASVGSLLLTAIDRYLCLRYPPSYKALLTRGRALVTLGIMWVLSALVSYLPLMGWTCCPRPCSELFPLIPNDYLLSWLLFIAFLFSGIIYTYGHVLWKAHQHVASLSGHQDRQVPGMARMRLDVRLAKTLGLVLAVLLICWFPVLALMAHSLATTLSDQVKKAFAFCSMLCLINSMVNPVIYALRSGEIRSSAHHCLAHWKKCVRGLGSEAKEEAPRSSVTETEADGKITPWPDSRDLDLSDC
Assay: 35S GTPγS binding assay, hCB2 agonist
Format: biochemical

| entry.smiles | experimental.system | measured.result |
| --- | --- | --- |
| CCOc1ccc(C(=O)c2cc3cc(C)n(CCN4CCOCC4)c3s2)c(F)c1 | human CB2 (hCB2) (Homo sapiens, UniProt P34972) | < 100 nM |
| Cc1ccc(C(=O)c2cc3cc(C)n(CCN4CCOCC4)c3s2)cn1 | human CB2 (hCB2) (Homo sapiens, UniProt P34972) | 100 to 1000 nM |
| Cc1ccc(C(=O)c2cc3cc(C)n(CCN4CCOCC4)c3s2)cc1 | human CB2 (hCB2) (Homo sapiens, UniProt P34972) | < 100 nM |

For every listed record, write down its EC50.
1. Cc1cc2cc(C(=O)c3cccc(Cl)c3Cl)sc2n1C
2. CSc1ccc(C(=O)c2cc3cc(C)n(CCN4CCOCC4)c3s2)cc1
3. COc1ccc(C(=O)c2cc3cc(C)n(CCN4CCOCC4)c3s2)c(C)c1
4. COc1ccc(C(=O)c2cc3cc(C)n(CCN4CCC(C(F)(F)F)CC4)c3s2)cn1
5. COc1cc(F)c(C(=O)c2cc3cc(C)n(CCN4CCOCC4)c3s2)c(F)c1
6. COc1ccc(C(=O)c2cc3cc(C)n(CCN4CCOCC4)c3s2)nc1

Given back:
["100 to 1000 nM", "100 to 1000 nM", "< 100 nM", "100 to 1000 nM", "< 100 nM", "< 100 nM"]

----------
For each entry below, report its IC50 value.
Target: recombinant human cannabinoid receptor CB1 (Homo sapiens, UniProt P21554)
Construct: (cDNA clone) CNR01L000
Assay: Cannabinoid receptor radioligand binding assay, [3H]-CP 55,940 displacement, hCB1

| compound | experimental.system | IC50 |
| --- | --- | --- |
| COc1ccc(C(=O)c2cc3cc(C)n(CCCNS(C)(=O)=O)c3s2)c(F)c1 [Compound 87] | recombinant human cannabinoid receptor CB1 (Homo sapiens, UniProt P21554) | > 10000 nM |
| Cc1cc2cc(C(=O)c3cccnc3Cl)sc2n1CCN1CCOCC1 [Compound 17] | recombinant human cannabinoid receptor CB1 (Homo sapiens, UniProt P21554) | > 10000 nM |
| COc1ccc(C(=O)c2cc3cc(C)n(CCCNS(C)(=O)=O)c3s2)cn1 [Compound 109] | recombinant human cannabinoid receptor CB1 (Homo sapiens, UniProt P21554) | > 10000 nM |
| COc1ncccc1C(=O)c1cc2cc(C)n(CCN3CCOCC3)c2s1 [Compound 47] | recombinant human cannabinoid receptor CB1 (Homo sapiens, UniProt P21554) | > 10000 nM |

Can you give me IC50 for all of these, one by one?
1. COc1ccc(C(=O)c2cc3cc(C)n(CCN4CCOCC4)c3s2)c(F)c1 [Compound 68]
2. COc1ccc(C(=O)c2cc3cc(C)n(Cc4ccccc4)c3s2)c(Cl)c1 [Compound 114]
3. COc1ccc(C(=O)c2cc3cc(C)n(CCCNS(N)(=O)=O)c3s2)cc1 [Compound 105]
4. COc1ccc(C(=O)c2cc3cc(C)n(CCN4CCOCC4)c3s2)c(C)c1 [Compound 88]

Given back:
1. 1000 to 10000 nM
2. 1000 to 10000 nM
3. > 10000 nM
4. 100 to 1000 nM

----------
Biological target: recombinant human cannabinoid receptor CB2 (Homo sapiens, UniProt P34972)
Construct: (cDNA clone) CNR0200000
Sequence (P34972 whole entry): as the sequence (P34972 whole entry) above
Assay: Cannabinoid receptor radioligand binding assay, [3H]-CP 55,940 displacement, hCB2
pIC50: −log10 of the molar value.
property.measured: pIC50

Record excerpt, results attached:
| molecule | measured.result |
| --- | --- |
| COc1ccc(C(=O)c2cc3cc(C)n(CCCNS(N)(=O)=O)c3s2)cc1 [Compound 105] | 5.00 to 6.00 |
| Cc1cc2cc(C(=O)c3cccc(Cl)c3Cl)sc2n1CCC1CCOCC1 [Compound 18] | > 7.00 |
| Cc1cc2cc(C(=O)c3ccccc3N)sc2n1CCN1CCOCC1 [Compound 48] | > 7.00 |
| Cc1cc2cc(C(=O)c3cccc(Cl)c3Cl)sc2n1S(=O)(=O)C(C)C [Compound 38] | > 7.00 |
| Cc1cc2cc(C(=O)c3ccc(Cl)cc3Cl)sc2n1CCN1CCOCC1 [Compound 10] | > 7.00 |

For each of the molecules below, note its pIC50.
1. COc1ccc(Cn2c(C)cc3cc(C(=O)c4ccc(OC)cc4)sc32)cc1 [Compound 103]
2. COc1ccc(C(=O)c2cc3cc(C)n(CCCCl)c3s2)c(Cl)c1 [Compound 85]
3. COc1ccc(C(O)(c2cc3cc(C)n(CCN4CCOCC4)c3s2)C(F)(F)F)cc1 (stereo not drawn) [Compound 138]
4. Cc1cc2cc(C(=O)c3cccc(F)c3F)sc2n1CCN1CCOCC1 [Compound 8]
5. CCS(=O)(=O)NCCCn1c(C)cc2cc(C(=O)c3ccc(OC)cc3)sc21 [Compound 74]
6. COc1ccc(C(=O)c2cc3cc(C)n(CCCNS(C)(=O)=O)c3s2)cc1 [Compound 44]

Given back:
["6.00 to 7.00", "> 7.00", "6.00 to 7.00", "6.00 to 7.00", "5.00 to 6.00", "> 7.00"]

For the 3 molecules below, give their pIC50 values.
1. Cc1cc2cc(C(=O)c3cccc(Cl)c3Cl)sc2n1C [Compound 20]
2. COc1ccc(C(=O)c2cc3cc(C)n(Cc4ccccc4)c3s2)cc1 [Compound 84]
3. CCOc1ccc(C(=O)c2cc3cc(C)n(CCCNS(C)(=O)=O)c3s2)cc1 [Compound 94]

Given back:
1. 5.00 to 6.00
2. 6.00 to 7.00
3. 6.00 to 7.00

----------
I'd appreciate it if you could supply pIC50 values for the items below.
Target: recombinant human cannabinoid receptor CB1 (Homo sapiens, UniProt P21554)
Construct: (cDNA clone) CNR01L000
Test: Cannabinoid receptor radioligand binding assay, [3H]-CP 55,940 displacement, hCB1
pIC50: −log10 of the molar value.

Examples with their reported pIC50 follow.
| compound | pIC50 |
| --- | --- |
| Cc1ccccc1C(=O)c1cc2cc(C)n(CCN3CCOCC3)c2s1 [Compound 12] | 5.00 to 6.00 |
| COc1cc(F)ccc1C(=O)c1cc2cc(C)n(CCN3CCOCC3)c2s1 [Compound 133] | 6.00 to 7.00 |
| COc1ccc(C(=O)c2cc3cc(C)n(CCN4CCOC4=O)c3s2)cc1 [Compound 50] | < 5.00 |
| Cc1cc2cc(C(=O)c3ccc(F)cc3)sc2n1CCN1CCOCC1 [Compound 54] | 5.00 to 6.00 |
| COc1ccc(C(=O)c2cc3cc(C)n(CCN4CCOCC4)c3s2)c(Cl)n1 [Compound 137] | 5.00 to 6.00 |

Each of the following entries comes with a recorded value; kindly state pIC50 for each.
1. COc1ccc(C(C)(O)c2cc3cc(C)n(CCN4CCOCC4)c3s2)cc1 (stereo not drawn) [Compound 101]
2. COc1ccc(C(=O)c2cc3cc(C)n(CCN4CCOCC4)c3s2)cc1Cl [Compound 116]

Given back:
["5.00 to 6.00", "5.00 to 6.00"]

Each compound below has a reported value. Please supply its pIC50.
1. Cc1cc2cc(C(=O)c3ccc4c(c3)OCO4)sc2n1CCN1CCOCC1 [Compound 106]
2. COc1ccc(C(=O)c2cc3cc(C)n(CCN4CCOCC4)c3s2)nc1 [Compound 131]
3. COc1ccc(C(=O)c2cc3cc(C)n(CCN4CCCCC4)c3s2)cn1 [Compound 117]
4. Cc1ccc(C(=N)c2cc3cc(C)n(CCN4CCOCC4)c3s2)cc1 [Compound 121]

Given back:
1: 5.00 to 6.00; 2: 5.00 to 6.00; 3: 5.00 to 6.00; 4: 5.00 to 6.00

Give one value of pIC50 per listed compound.
1. Cc1cc2cc(C(=O)c3ccc(O)cc3F)sc2n1CCN1CCOCC1 [Compound 165]
2. CCOC(=O)CCn1c(C)cc2cc(C(=O)c3ccc(OC)cc3)sc21 [Compound 72]
3. COc1ccc(C(=O)c2cc3cc(C)n(CCCN(C)S(C)(=O)=O)c3s2)cc1 [Compound 69]
4. Cc1cc2cc(C(=O)c3cccc(Cl)c3Cl)sc2n1CCc1ccccc1 [Compound 30]
5. Cc1cc2cc(C(=O)c3cccc4c3OCC4)sc2n1CCN1CCOCC1 [Compound 11]

Given back:
1: 6.00 to 7.00; 2: < 5.00; 3: < 5.00; 4: 6.00 to 7.00; 5: 6.00 to 7.00
